- assay system: SARS-CoV-2 nsp14 MTase (Severe acute respiratory syndrome coronavirus 2, UniProt P0DTD1)
- assay details: biochemical
- Assay type: biochemical
- condition set: nsp14 MTase activity, high-throughput screening follow-up; read-out: IC50
Rule: measured IC50 below 30 µM gets T; anything equal to or greater than 30 µM gets F.

compound	category
O=C(O)c1ccc(C(=O)c2ccc(C(=O)c3ccc(C(=O)O)cc3)cc2)cc1	T
OCC(O)C(O)C(O)C(O)c1nc2ccccc2s1 (centres unmarked)	F
O=C(CN1CCOCC1)C(O)C(O)C(O)CO (centres unmarked)	F
NC(CSCCSCCSCC(N)C(=O)O)C(=O)O (centres unmarked)	F
O=C1C=C(O)C(=C/C=C/C=C/c2c(O)cc(O)cc2O)C(O)=C1	T
